molecular target: human ALK5 (Homo sapiens); assay: ALK5 Enzyme Assay 2 (fluorescence polarisation probe displacement); type: binding; set-up: 6His tagged human ALK5 (residues162-503) was grown and purified from insect cells; 6His; made in house; host or cells: insect cells; settings: read-out: EAA2: activity (μM) using Enzyme Assay 2
Sequence (P36897 162-503): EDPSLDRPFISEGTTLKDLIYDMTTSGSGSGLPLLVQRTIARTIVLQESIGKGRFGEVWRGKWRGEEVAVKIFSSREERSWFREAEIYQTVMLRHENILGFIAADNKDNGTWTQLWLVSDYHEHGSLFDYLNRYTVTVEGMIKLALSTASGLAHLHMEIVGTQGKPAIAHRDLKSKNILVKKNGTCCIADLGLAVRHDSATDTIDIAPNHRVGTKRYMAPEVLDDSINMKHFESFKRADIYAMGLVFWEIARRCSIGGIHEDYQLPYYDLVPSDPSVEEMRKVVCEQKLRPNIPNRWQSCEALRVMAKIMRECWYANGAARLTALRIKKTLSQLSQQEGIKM
Values of IC50 strictly less than 0.01 µM map to YES, and values of at least 0.01 µM map to NO.

COc1cc(Nc2cc(Oc3ccc(C)nc3-c3ccccn3)ccn2)cc(OC)c1OC ... NO
Cc1ccc(Oc2ccnc(Nc3ccccc3)c2)c(C(=O)NCC2CC2)n1 ... NO
C#CC(C)(C)NC(=O)c1cccc(Nc2cc(Oc3cc(C)c(C)nc3-c3ccccn3)ccn2)c1 ... NO
Cc1cc(Oc2ccnc(Nc3cccc(Cl)c3)c2)c(-c2ccccn2)nc1C ... NO
CC(=O)NC1CCN(C(=O)c2cccc(Nc3cc(Oc4ccc(C)nc4C)ccn3)c2)C1 (centres unmarked) ... NO
Cc1cc(Oc2ccnc(Nc3cccc(OCCN4CCOCC4)c3)c2)c(-c2ccccn2)nc1C ... NO

Enquiry: Strictly below 0.01 µM: is that where IC50 of `Cc1ccc(Oc2ccnc(Nc3cccc(C(=O)NCc4ncc[nH]4)c3)c2)c(C)n1` sits?
Return: YES

Enquiry: Strictly below 0.01 µM: is that where IC50 of `Cc1ccc(Oc2ccnc(Nc3ccc(CO)cc3)c2)c(-c2ccco2)n1` sits?
Return: YES

Enquiry: Strictly below 0.01 µM: is that where IC50 of COc1cc(Nc2cc(Oc3ccc(C)nc3C3CCCO3)ccn2)cc(OC)c1OC (centres unmarked) sits?
Return: NO

Enquiry: Strictly below 0.01 µM: is that where IC50 of `Cc1cc(Oc2ccnc(Nc3cccnc3)c2)c(-c2ccccn2)nc1C` sits?
Return: NO

Enquiry: Strictly below 0.01 µM: is that where IC50 of `Cc1cc(Oc2ccnc(Nc3ccc(C(N)=O)cc3)c2)c(-c2ccccn2)nc1C` sits?
Return: NO

Enquiry: Strictly below 0.01 µM: is that where IC50 of `Cc1ccc(Oc2ccnc(Nc3ccc(S(=O)(=O)N(C)CCO)cc3)c2)c(C)n1` sits?
Return: NO

Enquiry: Strictly below 0.01 µM: is that where IC50 of `Cc1cc(Oc2ccnc(Nc3cccc(CO)c3)c2)c(-c2ccccn2)nc1C` sits?
Return: YES

Enquiry: Strictly below 0.01 µM: is that where IC50 of `Cc1ccc(Oc2ccnc(Nc3ccc(S(=O)(=O)NCCN4CCOCC4)cc3)c2)c(C)n1` sits?
Return: NO

Enquiry: Strictly below 0.01 µM: is that where IC50 of `Cc1cc(Oc2ccnc(Nc3cccc(O)c3)c2)c(-c2ccccn2)nc1C` sits?
Return: YES

Enquiry: Strictly below 0.01 µM: is that where IC50 of `Cc1ccc(Oc2ccnc(Nc3ccc(CO)cc3)c2)c(-c2ccccn2)n1` sits?
Return: YES

Enquiry: Strictly below 0.01 µM: is that where IC50 of `Cc1ccc(Oc2ccnc(Nc3cccc(C(=O)N4CCC4)c3)c2)c(C)n1` sits?
Return: NO
